target: EGFR (Homo sapiens, UniProt P00533); construct: host or cells: A431; assay: EGFR in-cell Western (ICW) screening protocol (EGFR inhibition assay); type: cell-based; set-up: unit not given here; details: ICW assay, run 1
Sequence (P00533 25-1210): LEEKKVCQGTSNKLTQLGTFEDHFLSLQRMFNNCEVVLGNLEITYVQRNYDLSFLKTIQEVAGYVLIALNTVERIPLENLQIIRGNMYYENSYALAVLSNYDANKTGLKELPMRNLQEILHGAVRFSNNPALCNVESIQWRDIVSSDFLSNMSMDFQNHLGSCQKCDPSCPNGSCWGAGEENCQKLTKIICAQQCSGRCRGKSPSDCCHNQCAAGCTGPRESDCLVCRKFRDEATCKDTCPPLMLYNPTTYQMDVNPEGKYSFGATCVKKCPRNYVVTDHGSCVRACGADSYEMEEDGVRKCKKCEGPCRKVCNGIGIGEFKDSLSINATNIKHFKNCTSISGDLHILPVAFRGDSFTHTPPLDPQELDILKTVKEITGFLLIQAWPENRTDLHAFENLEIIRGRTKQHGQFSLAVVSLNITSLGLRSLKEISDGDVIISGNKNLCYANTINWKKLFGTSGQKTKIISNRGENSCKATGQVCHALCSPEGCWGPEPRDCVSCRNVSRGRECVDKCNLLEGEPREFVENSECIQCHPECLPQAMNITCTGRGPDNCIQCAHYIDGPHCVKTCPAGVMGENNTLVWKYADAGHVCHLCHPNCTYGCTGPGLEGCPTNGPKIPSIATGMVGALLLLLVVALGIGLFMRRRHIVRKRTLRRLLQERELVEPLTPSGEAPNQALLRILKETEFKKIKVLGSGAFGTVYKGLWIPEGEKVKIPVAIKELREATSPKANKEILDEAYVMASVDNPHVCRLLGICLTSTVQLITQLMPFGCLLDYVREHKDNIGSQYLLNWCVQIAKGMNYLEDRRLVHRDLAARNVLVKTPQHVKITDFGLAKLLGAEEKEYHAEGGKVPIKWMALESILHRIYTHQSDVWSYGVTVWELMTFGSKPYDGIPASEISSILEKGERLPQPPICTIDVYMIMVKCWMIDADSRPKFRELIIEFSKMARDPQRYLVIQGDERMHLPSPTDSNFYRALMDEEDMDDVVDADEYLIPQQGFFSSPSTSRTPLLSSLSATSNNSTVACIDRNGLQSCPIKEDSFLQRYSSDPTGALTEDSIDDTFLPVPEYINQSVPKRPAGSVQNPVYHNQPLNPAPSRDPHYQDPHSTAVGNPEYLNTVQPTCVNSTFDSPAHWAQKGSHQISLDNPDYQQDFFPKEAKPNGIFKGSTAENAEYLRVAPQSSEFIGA
Where a name gives a salt, the structure may show the parent alone.
Where ICW 1 equals or exceeds 50, the correct label is fulfilled; where it does not, the label is not fulfilled.

CCCc1cc(=O)[nH]c(Nc2nc(C)c3ccc(C)cc3n2)n1 [compound 12674] :: not fulfilled
Cc1ccc2nc(Nc3nc(=O)c(C)c(C)[nH]3)nc(C)c2c1 [12629 + TFA] :: not fulfilled
CCCCCc1c(C)nc(Nc2nc(C)c3ccc(C)cc3n2)[nH]c1=O [11730 + TFA] :: not fulfilled
Cc1nc(Nc2nc(=O)c3c([nH]2)CCCC3)nc2c(C)cccc12 [11436 + TFA] :: fulfilled
Cc1ccc(SCc2cc(=O)[nH]c(Nc3nc(C)c4cccc(C)c4n3)n2)cc1 [11707 + TFA] :: not fulfilled

Ask | Reported ICW 1 at or above 50? "CCOc1cccc2c(C)nc(Nc3nc(CSc4ccc(C)cc4)cc(=O)[nH]3)nc12"
Reply | not fulfilled

Ask | For this molecule, is measured ICW 1 50 or higher? Cc1ccc2c(C)nc(Nc3nc(C)c(CCC(C)C)c(=O)[nH]3)nc2c1 [11712 + TFA]
Reply | not fulfilled

* * *

target: EGFR (Homo sapiens); construct: host or cells: A431; experiment: EGFR in-cell Western (ICW) screening protocol (EGFR inhibition assay); format: cell-based; set-up: unit not given here; settings: ICW assay, average of runs 1 and 2
Structures can show the parent of a compound that is named as a salt.
Give criterion met when the value for ICW Avg is at least 40. Give criterion not met when it is less.

Some solved cases for reference:
Cc1nc(Nc2nc(=O)cc(CSc3ccc(Cl)cc3)[nH]2)nc2ccccc12 [11445 + TFA] :: criterion met
CCOc1cccc2c(C)nc(Nc3nc(C)c(C)c(=O)[nH]3)nc12 [12735 + TFA] :: criterion met
CCCc1c(C)nc(Nc2nc(C)c3cc(C)cc(C)c3n2)[nH]c1=O [compound 12736] :: criterion met

Ask | Threshold query (ICW Avg >= 40) on Cc1ccc2c(O)nc(Nc3nc(C)cc(-c4ccccc4)n3)nc2c1 [12693 + TFA]
Reply | criterion met

Ask | Threshold query (ICW Avg >= 40) on O=c1cc(C(F)(F)F)[nH]c(Nc2nc(-c3ccccc3)c3cc(Cl)ccc3n2)n1 [11759 + TFA]
Reply | criterion not met

* * *

The entries below come with measured ICW 1 values attached.
molecular target: EGFR (Homo sapiens, UniProt P00533); construct: host or cells: A431; assay: EGFR in-cell Western (ICW) screening protocol (EGFR inhibition assay); assay type: cell-based; design: unit not given here; details: ICW assay, run 1
Where a name gives a salt, the structure may show the parent alone.
Write the number on its own, no unit after it.

Cc1ccc2nc(Nc3nc(C)cc(C(F)(F)F)n3)nc(C)c2c1 [11816 + TFA] :: 39.76
CCc1c(C)nc(Nc2nc(C)c3cccc(OC)c3n2)[nH]c1=O [12738 + TFA] :: 53.67

Ask | Returns the measured ICW 1 for the input compound. Input: CCOC(=O)c1c(N)nc(Nc2nc(C)c3cc(C)ccc3n2)nc1-c1ccccc1 [compound 11812]
Reply | 51.90
